Assay: yeast display, Sf9 membrane polyspecificity reagent, FACS + sequencing; frameworks hold sequencing errors
measured_property: polyreactivity (PSR sort gate)

Use these answered entries as a reference point.
QVQLVESGGGLVQAGGSLRLTCAASGITFCIYVMGWYRQAPGKEREVVATISRSDDNTYYADSVKGRFTISRDNAKNTVYLQMYCLKPEDTAVYYCAADGVISAWYSSRDDYWGQGTQVTVSS = low polyreactivity
QVQLVESGGGLVLAGGRLRLSCAASGRIFTRYAMGCYRQAPGKERELVAVITRSGGSTYYADSVKGRFTISRDIAKNTVYLQMNSLKPEDTAVYYCAAKYYGEMYYWGQGTQVTVSS = low polyreactivity
QVQLVESGGGLVQAGGSLRLSCAAAGSTFRYYAMGWYRHAPGKDRELVAAITSGGNTYNADSVKGRFTISRDNAKNTVYLLMNSLKPEDTAVYYCAAVGYLKYDNWGQGTQVTVSS = low polyreactivity
QVQLVESGGGLVQAGGSLRLSCASSGSTFAIYAMGWYRQAPGKESELVAAITRSGGNAYYADSVKGRFTISRDNAKNTVYLQMNSLKPEDTAVYYCNAETYYWSAYAQYDYWGQGTQVTVSS = high polyreactivity
QVQHVESGGGLVQAGGSLRLSCAACGRTFTPYAMGWYLQEPGKDREFVAAIDTSGGSTYADSVNGRFTISRDNAKYTVYLQKNSLKPEDTAVYYCGTRGFYSWDYWYLWEYDYWGQGTQVTVSS = low polyreactivity
QVQLVESGGGLVQAGGSLRLSCAASGSTFYGYTMGWYRRAPGKERELVAAITFRGGSTYYADSVKGRFTISRDNAKNTVYLQMNSLKPEDTAVYYCAAVGRYSRYPYSDTYGYWGQGTQVTVSS = high polyreactivity

Query: polyreactivity (PSR sort gate); subject: QVQLVESGGGLVQAGGSLRLSCAASGRTFIVNAMAWYRQAPGKERELVAAISSGGSTNYADSVKGRFTISRDNAKNTVYLQMNSLKPEDTAVYYCASRLRGPRSYWSWYGYWGQGTQVTVSS
high polyreactivity

Query: polyreactivity (PSR sort gate); subject: QVQLVESGGGLVQAGGSLRLSCAASGRLFKSYAMGWYRQAPGKERELVAAIRSGGSTYYADSVKGRFTISRDNAKNTVYLQMISLKPEDTAVYYCNRVTRTWTVTYHYWGQGTQVTVSS
high polyreactivity

###

Experiment: yeast display, Sf9 membrane polyspecificity reagent, FACS + sequencing; frameworks hold sequencing errors
measured_property: polyreactivity (PSR sort gate)

QVQLVESGGGLVQAGGSLRLSCAASGFIFWSNAMGWYRQAPGKERELVAAISWSGGSTYYADSVKGRFTISRDNAKNTVYLQMNSLKPEDTAVYYCNTLNVQRDEHDYWGQGTQVTVSS = high polyreactivity
QVQLVESVGGLVQAGGSLRLSCAASGRTFWWNAMGWYRQAPGKEREFVAAIRSTGGRTYYADSVKGRFTISRDNAKNTVYLQMNSLKPEDTAVYYCAAYTLDPYGFLYEYWGQGTQVTVSS = high polyreactivity
QVQLVESGGGLVQAGGSLRLICAASGSTFGVYAMGWYRQAPGKEREMVAAIRWSSGSTYYADSVKGRFTISRDNAKNTVYLQMNSLKPEDTAVYYCAKTRGIYNIRFGYWGQGTQVTVSS = high polyreactivity

###

Assay: yeast display, Sf9 membrane polyspecificity reagent, FACS + sequencing; frameworks hold sequencing errors
measured_property: polyreactivity (PSR sort gate)

Use these answered entries as a reference point.
QVQLVESGGGLVQAGGSLRLSCAASGFTFPWYAMGWYRQAPGKERELVAALTGSGGSTDYADSVKGRFTISRDNAKNTVYLQMNSLKPEDTAVYYCNAGKTIDYRDGVGYDHWGQGTQVTVSS = low polyreactivity
QVQLVESGGGLVQAGGSLRLSCAASGRTFGVYALGWYRQAPRKERELVAGIRWRGGSTYYADSVKGRFTISRDNAKNTVYLQMNSLKPEDTAVYYCAADVYLVKYDYWGQGTQVTVSS = low polyreactivity
QVQLVESGGGLVQAGGSLRLSCAYSGRTFYYNTMGWYRQAPGKEREFVATISRIGGSTYYADSVKGRFTISRDNAKNTVYFQMNSLKPEDTAVYYCAKGRSLNGLPPVVYWQLFYYWGQGTLVTVSS = high polyreactivity
QVQLVESGGGLVQAGGSLRLSCAASGSTVAYYAMGWYRQAPGKERELVAAITWNGGRTFYADSVKGRFTISRDNAKNTVYLQMNSLKPEDTAVYYCAAATYQSRYFQRFDYWGQGTQVTVSS = high polyreactivity

Now consider a different sequence.
Query: polyreactivity (PSR sort gate); subject: QVQLVESGGGLVQAGGSLRLSCAASGLTFYHYDMGWYRQAPGIETELVAAITNGGSTYYADSVKGRFTISRDNAKNTVYLQMNSLKPEDTAVYYCAADGSGYYDWYYYWGQVTQVTVSS
low polyreactivity

###

Assay: yeast display, Sf9 membrane polyspecificity reagent, FACS + sequencing; frameworks hold sequencing errors
measured_property: polyreactivity (PSR sort gate)

Use these answered entries as a reference point.
QVQLVESGGGLVQAGGSLRLSCAASGSIFVFYAMGWYRQAPGKERELVAAIDVSDGSTYYADSVKGRFTISRDNAKNTVYLQMNSLKPEDTAVYYCATYVVTYYWWYTYDYWGQGTQVTVSS = low polyreactivity
QVQLVESGGGLVQAGGSLRLSCAASGSTFIYYAMGWYRQAPGKERELVAAISGSGASTYYADSVKGRFTISRDNAKNTVYLQMNSLKPEDTAVYYCHFYRWRGYDYWGQGTQVTVSS = high polyreactivity
QVQLVESGGGLVQAGGSLRLSCAASGITYTVYAMGWYRQAPGKERELVAVINESGGSTYYADSVKGRFTISRDNAKNTVYLQMNSLKPEDTAVYYCNKTRVYVSSTYDYWGLGTQVTVSS = low polyreactivity
QVQLVESGGGLVQAGGSLRLSCAASGSIFVGNAMGWYRQAPGKEWELVAAISAGGSTYYADSVKGRFTISRDNAKNTVYLKLNSLKTEDTAVYYCAAYYVRRYSSRPKDDYWGQGTQVTVSS = low polyreactivity
QVQLVESGGGLVQAGGSLRLSCAASGGIFVYNMGWYRQAPGKERELVAAISVSGGSTYYADSVKGRFTISRDNAKNTVYLQMNSLKPEDTAVYYCAASRPPYRDDYWGQGSQVTVSS = high polyreactivity

Query: polyreactivity (PSR sort gate); subject: QVQLVESGGGLVQAGGSLRLSCAASGSIFSLYAMGCYIQAHGKERELVAAISRGGSTNYADSVKGRFTISRDNAKNTVYLQMNSLKPEDTAVDYCNAGFGVRRKHITFYTWYDYWGQGTQVTVSS
low polyreactivity

Query: polyreactivity (PSR sort gate); subject: QVQLVESGGGLVQAAGSLRLSCAASGSPFSGYAMGWYRQPPGKQRELVAAISWRGVRTSYADSVKGRFTISRDNAKNRVYLQMNSLKPEDSAVYYCDAVRYITKEFYWGQGTQVTVSS
high polyreactivity

Query: polyreactivity (PSR sort gate); subject: QVQLVASGGGLVQAGGSLRLSCAASGRNFRSYVMGWYRQAPGKERDLVATITRSGGGTTYADSVKGRFTISRDNAKNTVYLHMKSLKAEDTAVYYCNAERRYSWYSQGDYWGQGTQVTVSS
high polyreactivity

Query: polyreactivity (PSR sort gate); subject: QGQLVESGGGLVQAGGSLRLSCAASGRTFVDYDMGWYRQAAGKERELVADINSGGSTYYADSVKGRFTISRDNAKNTVYLQMNSLKREDSAVYYCAADDGWGYISSYDYEYWGQGTQVTVSS
high polyreactivity

Query: polyreactivity (PSR sort gate); subject: QVQLVESGGGLVQAGGSLRLSCAASGSIFDINAMGWYRQAPGKEREFVAAISWSGGTTYYADSVKGRFTISRDNAKNPVYLQMNSLKPEDTAVYYCAALSYVKRRQSYGYWGLGTQVTVSS
high polyreactivity

Query: polyreactivity (PSR sort gate); subject: QVQLVESGGGLVQAGGSLRLICAASGRTYLWYTMGWYRQAPGKEREFVAAIWSGDSTYYADSVKGRFTISRDNAKNTVYLQMNSLKPEDTAVYYCAARRFRGSYYWGQGTQVTVSS
high polyreactivity

###

Assay: yeast display, Sf9 membrane polyspecificity reagent, FACS + sequencing; frameworks hold sequencing errors
measured_property: polyreactivity (PSR sort gate)

QVQLVESGGGLVQAGGSLRLSCAASGRTFRSYAMGRYRQAPGKVRELVAAISYGGGSTYYADSVKGRFTISRDNAKNTVYLQMNSLKPEDTAVYYCAAAGNKRGGYDYWGQGTQVTVSS = high polyreactivity
QVQLVESGGGLVQAGGSLRLSCAASGSIFPSYAIGWYRQAPGKERELVATIGRGGTTNYADSVKGRFTISRDNAKNTVYLQMNSLKPEDTSVYYCNAERIWRYKYGYDYWGQGTQVTVSS = high polyreactivity
QVQLVESGGGLVQAGGSLRLSCAASGSIFDGNTMGWSRPAPGKERELVATIRWRGGRTYYADSVKGRFTISRDNAKNTVSLQMNSLKPEDTAVYYCNARWGYSRHRLMGYWGQGTQVTVSS = high polyreactivity
QVQLVESGAGLVQAGGSLRLSCAASGRTFWVYSMGWSRQAPGKESELVAAFRRGGITNYADSVKGRFTISRDNAKITVYLQMNCLNPEDTAVYYCATENYGYLTRYYYWGPGTQVTVSS = low polyreactivity
QVQLVESGGGLVQAGGSLRLSCAASGSTIRLYAMGWYRQAPGKESELVAAISVSGGSTHYADSVKGRFTISRDNAKNTVYLQMNSLKPEYTAVYYFNAAGNPVSRYHYDYWGQGTQVTVSS = high polyreactivity
QVQLVESGGGLVKAGGSLRLSCAASGRTFWIYAMGWYRPAPGKERELRAAISQSSSNTYYADSVKGRVTLSRDNAKNTVYLQMNSLKPEDTAVYYCNAVVLRYQGSWLEYWGQGTQVTVSS = low polyreactivity
QVQLVESGGGLVQAGGSLRLSCAASGFIFNYYDMGWYRQAPGKERELVAAITYSVGSTYYADSVKGRFTISRDNAKNTVYLQMNSLKPEDTAVYYCNKDFLYGIYSYDYWGQGTQVTVSS = high polyreactivity
QVQLVESGGGLVQAGGSLRLSCAASGIIFTVYAMGWYRQAPGKERELVAAITSSGGRTYYADSVKGRFTISRDNAKNTVYLQMNSLKPEDTAVYYCAASIWLYRYYYWGQGTQVTVSS = high polyreactivity
QVQLVESGGGLVQAGGSLRLSCAASGYTFFTNAMGWYRQAPGKEREFVAAISKSGGNTYYADSVKGRFTISRDNAKNTVYLQMNSRKPEDTAVYYCAAQHRGYAGPRPYYYWGQGTQVTVSS = high polyreactivity
QVQLVESGGGLVQAGGSLRLSCADSGGIFLSYGMGWYRQAPGKERELVAAISRNDGRTYYADSVKGRFTISRDNAKNTVYLQMNSLKPEDTAVYYCAADPEYYYYIYVYVQYDYWGQGTQVTVSS = low polyreactivity

Query: polyreactivity (PSR sort gate); subject: QVQLVESGGGLVQAGGSLRLSCAASGSTFDHYDMGWSIPAPGKERELVAAISYSGSTTVYADSVKGRFTISRDNAMNTVYLQMNSLKPEDTAVYYCAASGDVIQSPMDYWGQGTQVTVSS
low polyreactivity

Query: polyreactivity (PSR sort gate); subject: QVQHVESGGGLVQAGGSLRLSCAASGIIFIGNAMGWYRQAPGKEGALVAANTDSGGRTYYADSVKGRFTISRDNAKNSVYLQMNCLKPEDTAVYYCARDRGKNTPYDYWGQGTLVTVSS
low polyreactivity

Query: polyreactivity (PSR sort gate); subject: QVQLVESGGGLVQAGGSLRLTCAAYGRIYINTMGWYRQPPGKERELVAAITWSGGNTYYADSVKGRFTISRDNAKNTVYLQMNSLKPEDTAVYYWAVGGYLRSVSYIRLGNYYWGQGTQVTVSS
high polyreactivity

Query: polyreactivity (PSR sort gate); subject: QVQLVESGGGLVQAGGSLRLSCAASGFIFFYYAMGWYRQAPGKERELVAVIDRSGGTTYYADSVKGRFTISRDNAKNTVYFQMNILKPEDTAVYYCNADDFTYPSGWGFIYDYWGQGTQVTVSS
low polyreactivity

Query: polyreactivity (PSR sort gate); subject: QVQLVESGGGLVQAVGSLRLSCDASGLTFNSNAMGWYIQAHGKDRELVATISRGGTTNYADSVKGRFTISRDNAKNTVYLQMNSLKPEDTAVYYCNALRGSRYDYWGQGTQVTVSS
high polyreactivity

Query: polyreactivity (PSR sort gate); subject: QVQLLESGGGLVQAGGSLRLSCAASGGTFRPYAMGWYRQAPGKERELVAAISFTGSTYYADSVKGRFTISRDNAKNTVYLQMNSLKPEDTAVYYCAKDFWYPPRFDYWGQGTQVTVSS
low polyreactivity

Query: polyreactivity (PSR sort gate); subject: QFQLVESGGGLVQAGGSLRLSCAASGITFYRYAMGWYRQAPGKERELVASISSRGSSTYYADSVKGRFTISRDNAKNTVYLQMNSLKPEDTAVYYCAKSRGSRGFVASTYNYWGQGTQVTVSS
high polyreactivity

Query: polyreactivity (PSR sort gate); subject: QVQLVESGGGLVQAGGSLRLRCAASGSTFYHNAMGWYRQAPGKERELVAAISTRGTSTYYADSVKGRFTISRDKAKNTVYLQMNSLKPEDTAVYYCNAVYKLRARYDYWGQGTQVTVSS
high polyreactivity

Query: polyreactivity (PSR sort gate); subject: QVQLVESGGGLVQAGGSLRLSCAASGRIFRVYTMGWYRQAPGKERELVAGITWDGGGTYYADSVKGRFTISRDNAKNTVYLQMNSLKPEDTAVYYCNAVVQGFYLAWLYTLDSWGQGTQVTVSS
low polyreactivity

Query: polyreactivity (PSR sort gate); subject: QVQLVESGGGLVQAGGSLRFSCAASGRTIWTYVMGWYRQAPGKERELVAAISRSGSSTYYADSVKGRFTISRDNAKNTVYLQMNSLKPEDTAVYYCNKVDGTTLDDHYMDYWGQGTQVTVAS
low polyreactivity

Query: polyreactivity (PSR sort gate); subject: QVQLVESGGGLVQAGGSLRLSCAASGRTFKWYAMGWYRQAPGKERELVAGISRGAGRTYYADSVKGRFTISRDNAKNTVYLQMNSLKPEDTAVYYCAAVPSYHSTSPFYYWGQGTQVTVSS
high polyreactivity
